The values you see were collected from patent US9085561B2.

pIC50: −log10 of the molar value.
human CYP2D6 (Homo sapiens): recorded pIC50 for assorted compounds
Sequence (P10635 whole entry): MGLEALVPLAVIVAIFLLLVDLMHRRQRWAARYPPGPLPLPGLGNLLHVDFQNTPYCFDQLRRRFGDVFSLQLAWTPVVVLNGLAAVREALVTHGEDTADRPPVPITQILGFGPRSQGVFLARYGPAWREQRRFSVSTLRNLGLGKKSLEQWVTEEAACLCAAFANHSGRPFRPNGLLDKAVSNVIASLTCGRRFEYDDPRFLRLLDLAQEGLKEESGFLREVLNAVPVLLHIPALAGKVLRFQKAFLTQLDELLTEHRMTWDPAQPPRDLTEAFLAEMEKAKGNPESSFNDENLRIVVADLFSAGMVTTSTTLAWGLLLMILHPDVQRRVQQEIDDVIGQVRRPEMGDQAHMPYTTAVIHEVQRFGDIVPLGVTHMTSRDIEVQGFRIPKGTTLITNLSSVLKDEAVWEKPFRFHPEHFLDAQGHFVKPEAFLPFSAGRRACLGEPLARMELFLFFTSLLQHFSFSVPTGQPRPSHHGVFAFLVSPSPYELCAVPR

compound	pIC50
C[C@@H]1C[C@@H]2C[C@H](C1)C[C@@H](N1[C@@H]3CCC[C@H]1C[C@@H](n1c(=O)c(-c4c[nH]c(=O)cn4)nc4ccccc41)C3)C2	< 4.70
O=C(O)Cn1c(-c2nc3ccccc3n([C@H]3C[C@H]4CCC[C@@H](C3)N4[C@@H]3C[C@@H]4CCCC[C@@H](C4)C3)c2=O)cccc1=O	< 4.70
N[C@@H]1CCN(c2nc3ccccc3n(C3CCN(C4CCCCCCC4)CC3)c2=O)C1 [CC51, reference compound]	> 6.00
O=c1cnn(-c2nc3ccccc3n([C@H]3C[C@H]4CCC[C@@H](C3)N4[C@@H]3C[C@@H]4CCCC[C@@H](C4)C3)c2=O)c(=O)[nH]1	< 4.70

Ask: What does the record list as pIC50 for O=c1[nH]nc(-c2nc3ccccc3n([C@H]3C[C@H]4CCC[C@@H](C3)N4[C@H]3C[C@@H]4CCC[C@@H](C4)C3)c2=O)[nH]1 ?
Reply: < 4.70

Ask: What does the record list as pIC50 for C[C@@H]1C[C@@H]2C[C@H](C1)C[C@@H](N1[C@@H]3CCC[C@H]1C[C@@H](n1c(=O)c(-c4c[nH]c(=O)c(C(N)=O)c4)nc4ccccc41)C3)C2 ?
Reply: 5.14
